Target: Prostaglandin G/H synthase 1 (Homo sapiens)
Sequence (P23219 whole entry): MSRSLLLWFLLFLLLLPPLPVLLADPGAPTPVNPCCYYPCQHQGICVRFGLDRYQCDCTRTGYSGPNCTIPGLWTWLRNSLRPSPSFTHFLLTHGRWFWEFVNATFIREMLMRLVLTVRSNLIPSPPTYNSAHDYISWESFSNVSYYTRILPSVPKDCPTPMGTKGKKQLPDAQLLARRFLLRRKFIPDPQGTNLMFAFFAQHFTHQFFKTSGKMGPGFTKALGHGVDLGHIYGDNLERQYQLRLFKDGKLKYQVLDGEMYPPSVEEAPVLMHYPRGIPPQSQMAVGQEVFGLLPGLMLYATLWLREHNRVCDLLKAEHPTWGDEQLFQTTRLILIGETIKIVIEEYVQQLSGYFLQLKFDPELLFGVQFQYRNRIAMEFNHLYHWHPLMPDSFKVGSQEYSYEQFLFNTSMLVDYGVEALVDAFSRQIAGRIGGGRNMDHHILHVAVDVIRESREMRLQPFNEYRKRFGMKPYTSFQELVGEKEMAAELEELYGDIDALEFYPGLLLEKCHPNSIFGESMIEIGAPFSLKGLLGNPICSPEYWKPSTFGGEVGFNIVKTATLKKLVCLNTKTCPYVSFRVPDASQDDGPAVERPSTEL
Assay: Inhibition of COX1-mediated 12-HHT production in human platelet after 5 mins by HPLC analysis
Here the recorded IC50 is given for each entry.
Reply numerically in nM, unit not repeated.

molecule `Cc1ccc(-c2cc(CCC(=O)Oc3ccc(C(C)C)cc3)nn2-c2ccccc2)cc1` , IC50 observed: 300

molecule `Cc1ccc(-c2cc(CCC(=O)N3CCN(Cc4ccc(C(C)(C)C)cc4)CC3)nn2-c2ccccc2)cc1` , IC50 observed: 2500

molecule `Cc1ccc(-c2cc(CCC(=O)Oc3ccc(C(C)C)cc3)nn2-c2ccc3ccccc3n2)cc1` , IC50 observed: 14

molecule `CCOC(=O)C1CCN(C(=O)CCc2cc(-c3ccc(C)cc3)n(-c3ccc4ccccc4n3)n2)CC1` , IC50 observed: 900

molecule `Cc1ccc(-c2cc(CCC(=O)N3CCN(Cc4ccc(C(C)(C)C)cc4)CC3)nn2-c2ccc3ccccc3n2)cc1` , IC50 observed: 41
